pIC50: −log10 of the molar value.
Gag-Pol polyprotein [588-1027]/[588-1147] (Human immunodeficiency virus 1, UniProt P04585) data, read-out pIC50

// worked examples, pIC50 included
- Chemical string: "O=S(=O)(NCCc1ccccc1)Nc1ccc(Cl)cn1"
  Value reported: "< 5.00"
- Chemical string: "O=C(CCNC(=S)Nc1ccc(Br)cn1)c1ccccc1"
  Value reported: "> 7.57"
- Chemical string: "O=C(CC/N=C(\\S)Nc1ccc(Br)cn1)c1cc(F)ccc1F"
  Value reported: "> 7.60"

# input molecule: COc1ccccc1CCN=C(NC#N)Nc1nccs1 ; wanted: its pIC50
< 5.00

Item: N#CN/C(=N\c1ccc(Cl)cn1)NCCc1ccccc1
< 5.00
